Biological target: recombinant human TFPI (tissue factor pathway inhibitor) (human, UniProt P10646 29-304)
Assay: cell-based or functional assay
Kindly supply the reported FXa assay % of FXa alone, 10 nM Ab, 10 nM TFPI values for the records listed here.
Answers are plain numbers, in %.

{"binder": "clone 1238 (antibody, V domains shown) VH: EVQLVESGGGLVKPGGSLRLSCAASGFTFSSYAMNWVRQAPGKGLEWVSTITTGGSYTYYADSVEGRFTISRDNAKNSLYLQMNSLRAEDTAVYYCARQDGHFLMDYWGQGTLVTVSS VL: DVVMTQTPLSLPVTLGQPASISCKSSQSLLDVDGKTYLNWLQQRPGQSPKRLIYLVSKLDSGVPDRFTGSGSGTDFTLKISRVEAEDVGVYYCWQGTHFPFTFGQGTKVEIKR", "reported measurement": 5.6}
{"binder": "clone 1234 (antibody, V domains shown) VH: EVQLVESGGGLVKPGGSLRLSCAASGFTFSSYAMNWVRQAPGKGLEWVSTITTGGSYTYYADSVQGRFTISRDNAKNSLYLQMNSLRAEDTAVYYCARQDGNFLMDYWGQGTLVTVSS VL: DVVMTQTPLSLPVTLGQPASISCKSSQSLLDIDGKTYLNWLQQRPGQSPKRLIYLVSKLDSGVPDRFTGSGSGTDFTLEISRVEAEDVGVYYCWQGTHFPFTFGQGTKVEIKR", "reported measurement": 4.5}
{"binder": "clone 1224 (antibody, V domains shown) VH: EVQLVESGGGLVKPGGSLRLSCAASGFTFSSYAMSWVRQAPGKGLEWVSTITTGGSYTYYADSVDGRFTISRDNAKNSLYLQMNSLRAEDTAVYYCARQDGNFLMDYWGQGTLVTVSS VL: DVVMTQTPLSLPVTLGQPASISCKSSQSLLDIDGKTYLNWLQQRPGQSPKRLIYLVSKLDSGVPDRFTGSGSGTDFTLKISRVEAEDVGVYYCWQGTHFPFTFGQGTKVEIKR", "reported measurement": 29}

Quick request: FXa assay % of FXa alone, 10 nM Ab, 10 nM TFPI for each listed item, please.
1. clone 1023 (antibody, V domains shown, scFv on yeast at selection; human IgG4/kappa IgG as purified) VH: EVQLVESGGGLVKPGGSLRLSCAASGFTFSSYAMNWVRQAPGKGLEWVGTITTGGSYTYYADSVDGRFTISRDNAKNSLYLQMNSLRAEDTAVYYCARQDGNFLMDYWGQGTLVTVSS VL: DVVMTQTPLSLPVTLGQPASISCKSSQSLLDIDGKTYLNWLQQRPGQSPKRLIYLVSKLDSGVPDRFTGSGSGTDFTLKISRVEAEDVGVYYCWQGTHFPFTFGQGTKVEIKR
2. clone 1216 (antibody, V domains shown) VH: EVQLVESGGGLVKPGGSLRLSCAASGFTFSHYAMNWVRQAPGKGLEWVSTITTGGSYTYYADSVEGRFTISRDNAKNSLYLQMNSLRAEDTAVYYCARQDGHFLMDYWGQGTLVTVSS VL: DVVMTQTPLSLPVTLGQPASISCKSSQSLLDIDGKTYLNWLQQRPGQSPKRLIYLVSKLDSGVPDRFTGSGSGTDFTLKISRVEAEDVGVYYCWQGTHLPFTFGQGTKVEIKR
3. clone 4287 (antibody, V domains shown) VH: EVQLVESGGGLVKPGGSLRLSCAASGFTFSKYAMNWFRQAPGKGLEWVSTITTGGSYTYYADSVEGRFTISRDNAKNSLYLQMNSLRAEDTAVYYCARQHPYGNFLMDYWGQGTLVTVSS VL: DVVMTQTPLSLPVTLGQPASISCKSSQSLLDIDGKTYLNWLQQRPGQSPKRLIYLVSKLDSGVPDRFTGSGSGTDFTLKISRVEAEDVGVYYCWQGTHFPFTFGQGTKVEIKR

1. 52.7
2. 3.6
3. 3.3

Values from patent US20180030151A1
